The values you see were collected from PubChem BioAssay (Tox21).

Experiment: Nuclear factor erythroid 2-related factor 2/antioxidant responsive element (Nrf2/ARE) small molecule agonists: luciferase reporter gene qHTS assay in human keratinocytes (AID 1919969); further: nearly all actives have a fitted effect of over 35% in size
Details: KeratinoSens HaCaT ARE-luciferase, luminescence, 24 h; series mostly up to 92.4 µM
Results filed as inconclusive are left out. Active and inactive are the calls of the source. The call rests on the fitted dose curve.
Can you answer with just one of these options? 1 (active), 0 (inactive)

Hi team, can someone confirm the assay call for CCOCn1c(-c2ccc(Cl)cc2)c(C#N)c(Br)c1C(F)(F)F ? 1

Hi team, can someone confirm the assay call for CN(C)[C@@H]1C(=O)C(C(N)=O)=C(O)[C@@]2(O)C(=O)C3=C(O)c4c(O)ccc(Cl)c4[C@@](C)(O)[C@H]3C[C@@H]12 ? 0

Hi team, can someone confirm the assay call for [Cl][Sn]([c]1ccccc1)([c]1ccccc1)[c]1ccccc1 ? 1

Hi team, can someone confirm the assay call for Cc1c([N+](=O)[O-])cc2c(c1[N+](=O)[O-])C(C)(C)CC2(C)C ? 1

Hi team, can someone confirm the assay call for O=C(N[C@H]1CN2CCC1CC2)c1cc2ccoc2cn1 ? 0

Hi team, can someone confirm the assay call for CC(Cc1ccccc1)NCc1ccccc1Cl (centres undefined) ? 0

Hi team, can someone confirm the assay call for CCOC(=O)c1ncn2c1CN(C)C(=O)c1c(I)cccc1-2 ? 0

Hi team, can someone confirm the assay call for CCOC(=O)OC1=C(c2cc(C)ccc2C)C(=O)NC12CCC(OC)CC2 (centres undefined) ? 0

Hi team, can someone confirm the assay call for COP(=O)(OC)O/C(=C/Cl)c1cc(Cl)c(Cl)cc1Cl ? 1

Hi team, can someone confirm the assay call for CC(Cc1ccc(C(C)(C)C)cc1)CN1C[C@@H](C)O[C@@H](C)C1 (some centres undefined) ? 1

Hi team, can someone confirm the assay call for Nc1ccc([N+](=O)[O-])cc1Cl ? 0

Hi team, can someone confirm the assay call for C[C@H](CN1CCOCC1)C(C(=O)N1CCCC1)(c1ccccc1)c1ccccc1 ? 0

Hi team, can someone confirm the assay call for O=NN1CCNCC1 ? 1

Hi team, can someone confirm the assay call for CNNC ? 0

Hi team, can someone confirm the assay call for CCOC(=O)C(Cl)Cc1cc(-n2nc(C)n(C(F)F)c2=O)c(F)cc1Cl (centres undefined) ? 0

Hi team, can someone confirm the assay call for COC(=O)C1=CCCN(C)C1 ? 0

Hi team, can someone confirm the assay call for CC(C)(C)NCC(O)c1cc(Cl)c(N)c(Cl)c1 (centres undefined) ? 0

Hi team, can someone confirm the assay call for COCc1cnc(C2=NC(C)(C(C)C)C(=O)N2)c(C(=O)O)c1 (centres undefined) ? 0

Hi team, can someone confirm the assay call for COC(=O)N(C(=O)N1CO[C@@]2(C(=O)OC)Cc3cc(Cl)ccc3C2=N1)c1ccc(OC(F)(F)F)cc1 ? 0

Hi team, can someone confirm the assay call for CCNc1nc(Cl)nc(NC(C)(C)C)n1 ? 0

Hi team, can someone confirm the assay call for O=[N+]([O-])c1cccc2cccnc12 ? 0

Hi team, can someone confirm the assay call for CCN(CCO)CCn1c(Cc2ccccc2)nc2c1c(=O)n(C)c(=O)n2C ? 0

Hi team, can someone confirm the assay call for CC1NCCOC1c1ccccc1 (centres undefined) ? 0

Hi team, can someone confirm the assay call for COP(N)(=S)Oc1ccccc1C(=O)OC(C)C (centres undefined) ? 0

Hi team, can someone confirm the assay call for CC(C)(O)c1cnn2c(-c3ccc(F)c(-c4c(F)cccc4C#N)c3)cnc2n1 ? 0

Hi team, can someone confirm the assay call for O=c1oc2ccccc2c(O)c1Cc1c(O)c2ccccc2oc1=O ? 0

Hi team, can someone confirm the assay call for c1cc[n+]2c(c1)-c1cccc[n+]1CC2 ? 0

Hi team, can someone confirm the assay call for O=C1C(I)=CC(=C(c2cc(I)c(O)c(I)c2)c2ccccc2C(=O)O)C=C1I ? 0

Hi team, can someone confirm the assay call for COc1ccc(C(=O)N2CCCC2=O)cc1 ? 0

Hi team, can someone confirm the assay call for CSC(C)(C)/C=N/O ? 0

Hi team, can someone confirm the assay call for Cc1cc(C(F)(C(F)(F)F)C(F)(F)F)ccc1NC(=O)c1cccc(I)c1C(=O)NC(C)(C)CS(C)(=O)=O ? 0

Hi team, can someone confirm the assay call for O=C(O)C(Br)CBr (centres undefined) ? 0

Hi team, can someone confirm the assay call for c1cc2ccc3cccc4ccc(c1)c2c34 ? 0

Hi team, can someone confirm the assay call for COP(N)(=S)OC ? 0

Hi team, can someone confirm the assay call for O=S1(=O)OCC2C(CO1)C1(Cl)C(Cl)=C(Cl)C2(Cl)C1(Cl)Cl (centres undefined) ? 1

Hi team, can someone confirm the assay call for Cc1nnc2n1-c1sc(CCC(=O)N3CCOCC3)cc1C(c1ccccc1Cl)=NC2 ? 0

Hi team, can someone confirm the assay call for C[C@H]1CCC[C@H](O)CCCCCc2cc(O)cc(O)c2C(=O)O1 ? 0

Hi team, can someone confirm the assay call for N#C/C=C/c1ccccc1 ? 0

Hi team, can someone confirm the assay call for FC(Cl)(Cl)C(F)(Cl)Cl ? 0

Hi team, can someone confirm the assay call for CCOC(=O)/C=C(C)/C=C/C[C@@H](C)CCCC(C)C ? 1

Hi team, can someone confirm the assay call for CNC(=O)O/N=C(/CSC)C(C)(C)C ? 0

Hi team, can someone confirm the assay call for [Cl][Sn]([Cl])([Cl])[Cl] ? 0

Hi team, can someone confirm the assay call for CN1CCc2cc(Cl)c(O)cc2[C@H]2c3ccccc3CC[C@@H]21 ? 0

Hi team, can someone confirm the assay call for CCOC(C(=O)OCCN(C)C)(c1ccccc1)c1ccccc1 ? 0
